Hey, just so you know, these numbers are from PubChem BioAssay AID2013.

biological target: G-protein coupled receptor 55 (Homo sapiens) (UniProt Q9Y2T6); experiment: GPR55 antagonists blocking LPI-driven arrestin recruitment, primary screen, imaging, U2OS, beta-arrestin-GFP, LPI agonist (AID 2013); settings: U2OS GPR55 beta-arrestin-GFP translocation imaging, LPI antagonism; at 10 µM; hits give high values;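 note: U2OS cells stably carrying GPR55 and arrestin-GFP stimulated by 5 µM LPI near EC80; imaged beta-arrestin-GFP aggregate spots per cell after agonist stimulation; plate controls were LPI-stimulated DMSO wells for no effect and DMSO wells without LPI for full effect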
Sequence (Q9Y2T6 whole entry, looked up): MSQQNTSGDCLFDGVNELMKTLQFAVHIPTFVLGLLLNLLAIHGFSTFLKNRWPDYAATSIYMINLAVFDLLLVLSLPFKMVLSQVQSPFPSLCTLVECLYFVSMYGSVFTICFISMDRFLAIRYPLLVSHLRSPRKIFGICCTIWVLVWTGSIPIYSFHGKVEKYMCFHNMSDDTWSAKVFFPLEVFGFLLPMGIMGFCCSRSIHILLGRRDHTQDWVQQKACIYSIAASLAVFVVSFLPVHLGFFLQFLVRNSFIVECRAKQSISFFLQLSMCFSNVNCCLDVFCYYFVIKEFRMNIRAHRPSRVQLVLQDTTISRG
The whole screen tested about 290,000 compounds, of which about 370 (0.13%) were called active. The list comes from a sample in which actives are over-represented; it also holds close analogues and randomly drawn compounds. Measured potencies and affinities stand elsewhere.
What inhibition was measured for each of the following?
Numbers only, in %.

Below, each entry is followed by its recorded inhibition result.
| COMPOUND | inhibition [%] |
| --- | --- |
| Cc1ccccc1CC(=O)N1CCN(C(=O)C2CCCO2)CC1 (stereo not given) | 10.1 |
| CC(C)=CC(=O)OCc1csc(CC(=O)Nc2ccccc2C)n1 | 8.4 |
| COc1ccc(NS(=O)(=O)c2ccc(OC)c(N(C)S(=O)(=O)c3ccc(Cl)cc3)c2)cc1 | 1.4 |

Required: inhibition, one value per compound below.
1. O=C(c1ccco1)N(CCCN1CCOCC1)c1nc(-c2ccc(F)cc2)cs1
2. CN1C2CCC1/C(=C\c1ccccc1)C(=O)/C2=C\c1ccccc1
3. Cc1ccc(C(C)C)c(OCC(O)CN2CCc3ccccc3C2)c1 (stereo not given)
4. COc1ccc(S(=O)(=O)NN(C)C)cc1N(C)S(=O)(=O)c1ccc(Cl)cc1

A.
28.3
15.1
2.1
9.7
